Each item that follows carries a reported scatter score 0-4, HPAF-II, 3.000 nM.
target: native human MET on living cells (human, UniProt P08581 25-1390); experiment: cell-based or functional assay
Sequence (P08581 25-1390): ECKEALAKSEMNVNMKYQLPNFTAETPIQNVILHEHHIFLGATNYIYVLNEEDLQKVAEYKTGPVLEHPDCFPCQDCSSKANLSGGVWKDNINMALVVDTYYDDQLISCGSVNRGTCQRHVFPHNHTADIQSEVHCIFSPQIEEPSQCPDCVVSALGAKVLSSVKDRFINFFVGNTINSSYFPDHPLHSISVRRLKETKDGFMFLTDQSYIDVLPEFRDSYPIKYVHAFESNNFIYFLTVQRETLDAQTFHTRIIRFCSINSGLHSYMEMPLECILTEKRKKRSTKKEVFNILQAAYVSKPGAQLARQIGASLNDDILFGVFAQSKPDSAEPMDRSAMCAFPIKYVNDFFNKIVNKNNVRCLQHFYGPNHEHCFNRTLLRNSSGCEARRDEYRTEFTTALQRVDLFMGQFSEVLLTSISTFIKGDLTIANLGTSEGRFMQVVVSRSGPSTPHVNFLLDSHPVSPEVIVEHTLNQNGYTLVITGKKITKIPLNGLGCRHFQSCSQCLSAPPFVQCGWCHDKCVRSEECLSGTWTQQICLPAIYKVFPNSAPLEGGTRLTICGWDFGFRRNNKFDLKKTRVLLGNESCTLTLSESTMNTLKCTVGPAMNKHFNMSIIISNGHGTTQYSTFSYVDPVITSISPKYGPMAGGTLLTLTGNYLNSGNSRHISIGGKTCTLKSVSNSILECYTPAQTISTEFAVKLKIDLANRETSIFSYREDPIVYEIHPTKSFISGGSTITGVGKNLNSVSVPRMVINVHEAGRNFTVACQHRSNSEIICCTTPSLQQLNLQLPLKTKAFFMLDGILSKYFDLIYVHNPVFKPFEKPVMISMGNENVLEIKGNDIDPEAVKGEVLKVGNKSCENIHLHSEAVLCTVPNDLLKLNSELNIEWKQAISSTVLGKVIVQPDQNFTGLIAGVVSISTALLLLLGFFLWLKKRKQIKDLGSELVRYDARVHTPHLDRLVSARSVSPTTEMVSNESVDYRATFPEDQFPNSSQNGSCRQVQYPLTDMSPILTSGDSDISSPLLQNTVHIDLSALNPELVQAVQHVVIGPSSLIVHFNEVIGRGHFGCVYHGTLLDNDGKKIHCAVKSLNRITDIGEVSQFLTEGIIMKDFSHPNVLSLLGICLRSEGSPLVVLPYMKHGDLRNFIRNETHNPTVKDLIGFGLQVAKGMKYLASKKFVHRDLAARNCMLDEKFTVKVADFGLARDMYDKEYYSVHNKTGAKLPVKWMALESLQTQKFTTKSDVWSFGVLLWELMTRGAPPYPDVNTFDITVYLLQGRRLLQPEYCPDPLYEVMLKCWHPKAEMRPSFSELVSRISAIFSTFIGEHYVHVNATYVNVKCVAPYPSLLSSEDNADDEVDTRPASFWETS
Write the value in score as a bare number.

71G3 chimeric llama-human IgG1 mAb (antibody, V domains shown, llama VH on human IgG1 CH1-CH2-CH3, llama VL on human lambda CL) VH: QVQLVESGGGLVQPGGSLRVSCAASGFTFSTYYMSWVRQAPGKGLEWVSDIRTDGGTYYADSVKGRFTMSRDNAKNTLYLQMNSLKPEDTALYYCARTRIFPSGYDYWGQGTQVTVSS VL: QAVVTQEPSLSVSPGGTVTLTCGLSSGSVTTSNYPGWFQQTPGQAPRTLIYNTNSRHSGVPSRFSGSISGNKAALTIMGAQPEDEADYYCSLYPGSTTVFGGGTHLTVL: 4

Here is another binder to look at.
scatter score 0-4, HPAF-II, 3.000 nM for 71D4 chimeric llama-human IgG1 mAb (antibody, V domains shown, llama VH on human IgG1 CH1-CH2-CH3, llama VL on human lambda CL) VH: ELQLVESGGGLVQPGGSLRLSCAASGFTFSGYGMSWVRQAPGKGLEWVSDINSGGGSTSYADSVKGRFTISRDNAKNTLYLQMNSLKPEDTAVYYCAKDMRLYLARYNDYEAWDYWGQGTQVTVSS VL: SSALTQPSALSVTLGQTAKITCQGGSLGSSYAHWYQQKPGQAPVLVIYDDDSRPSGIPERFSGSSSGGTATLTISGAQAEDEGDYYCQSADSSGNAAVFGGGTHLTVL is 2
